The following compounds are shown together with reported melting point values.

>>> print(df.to_string())
                                   compound  reported_result
0  Cc1c(C)c2c(c(C)c1NC(=O)CC(C)C)C(O)(c1ccc3ccccc3c1)C(C)(C)O2 (stereo not given)    108 to 110 °C

// melting point lookup, key: CCCCOc1cc2c(cc1C)C(=O)CC2(C)C
59 °C

Can you share its melting point? I mean this compound: COC(=O)CN1CCC[C@H]1C(=O)N[C@@H](Cc1ccccc1)C(=O)N1CCC[C@H]1C(=O)O
145 to 148 °C

Which melting point value is on record for N#CCCNC(=O)c1cccc(-c2ccc3c(c2)N(Cc2ccc(Cl)c(Cl)c2)CC3)c1 ?
135 to 136 °C

State the recorded melting point for this entry: CC(C)Nc1cccnc1N1CCN(C(=O)c2ccc(C(=O)NC(C)(C)CO)cc2)CC1
113 to 115 °C

Given COC(=O)c1cc(C(=O)O)ccc1N , state its recorded melting point.
224 °C

----------
MEASURED_PARAMETER: melting point

Consider the reported melting point for these molecules:
                             molecule  reported_result
0  O=c1cc(-c2ccc(O)c(CO)c2)oc2cccnc12    226 to 227 °C
1       Clc1ccc2c(C3=CCNCC3)c[nH]c2c1    181 to 185 °C

Query (molecule): CNC(=C[N+](=O)[O-])NCCSCc1[nH]cnc1C ; field requested: melting point
141 to 143 °C

Given the molecule Cc1ccc(-c2nc(NC(=O)c3nnn[nH]3)cs2)cc1 , what is its reported melting point?
228 to 230 °C

Requested field: melting point. Item: COc1ccc(N2CCOP(=O)(Oc3ccccc3)OCC2)cc1
124 to 126 °C

What value of measured melting point is listed for COc1cc2c(cc1OC)C(C=Cc1ccc(Br)cc1)=NN=C(C)C2 ?
156 to 158 °C

I have this molecule here, CCC(Cc1ccc(C(C)C(=O)O)cc1)C(C)O (stereo not given) , and I need its recorded melting point.
100 to 103 °C

----------
Reported melting point values for the following compounds.

In [3]: df
Out[3]:
                                   compound  reported_result
0  CC(NC(=O)Cc1cc(F)cc(F)c1)C(=O)C1(N)N=C(N2CCCCC2)c2ccccc2N(C)C1=O (centres undefined)    154 to 160 °C
1                     CNC(=O)Nc1cc(C#N)ccn1    203 to 204 °C

Shift focus to the following entry.
Using the record for CN1CC2C3C=CC(C3)C2(c2cccc(O)c2)C1 (centres undefined) , report its melting point.
129 to 136 °C

----------
MEASURED_PARAMETER: melting point

These solved cases illustrate the format of a correct answer.
>>> df
                                 compound  reported_result
0                        O=Cc1ccc(Cl)cc1O      47 to 48 °C
1  O=S1(=O)N=C(NCCc2ccccc2)Nc2ccc(Cl)cc21    250 to 252 °C

Item under review: Cc1c(Nc2c(C#N)cncc2-c2coc(CN3CCN(C)CC3)c2)ccc2[nH]ccc12 . Reported melting point?
129 °C

Which measured melting point value corresponds to COc1ccc(C2NCCc3c2[nH]c2ccccc32)cc1F (stereo unspecified) ?
68 °C

// query melting point value for entry CCc1nn(-c2c(Cl)cc(C(F)(F)F)cc2Cl)c(Cl)c1-c1nc(C#N)c(C#N)[nH]1
75 to 78 °C

Returns the measured melting point for the input compound. Input: CC(C#N)=C1CCC2C3CCC4=CC(=O)CCC4(C)C3CCC12C (stereo unspecified)
195 to 196 °C

----------
MEASURED_PARAMETER: melting point

Study these solved cases before continuing.
In [3]: df
Out[3]:
                                   molecule  measured_parameter  reported_result
0       Cc1ccc2nc3n(c(=O)c2c1)-c1ccccc1C3=O       melting point    266 to 267 °C
1  Cn1nc2c(-c3ccc(Cl)cc3Cl)cccc2c1C(=O)c1ncn[nH]1       melting point    284 to 285 °C
2  O=C1NC(=O)C(=Cc2ccc(OCCCN3Cc4ccccc4C3=O)cc2)S1       melting point    260 to 263 °C
3  CC(C)(Cc1cc(F)cc(F)c1)NCC(O)c1cc(OCc2ccccc2)cc2c1OCC(=O)N2 (stereo not given)       melting point    150 to 158 °C
4             BrCc1ccc(-c2ccc3c(c2)OCO3)cc1       melting point      78 to 81 °C
5  CC(=O)OC1CCC2C3CCC4=CC(=O)C=CC4(C)C3CCC12C (stereo not given)       melting point           165 °C
6  Cc1ccc(S(=O)(=O)OC2COc3ccc4ncccc4c3C2)cc1 (stereo not given)       melting point    168 to 170 °C
7  NC(=O)c1ccc(-c2cnc3[nH]c(=O)n(CCC4CCOCC4)c3n2)cc1       melting point    233 to 236 °C

Which value of melting point has been reported for C#CCn1c(=O)n(C)c(=O)c2c1nc(Cl)n2Cc1ccccc1 in the records?
169 to 172 °C

Need melting point of COc1ccc2c(c1)C(c1ccc(N)cc1)=NNC(=O)C2 , thanks.
167 to 170 °C

// query melting point value for entry O=C(NCc1cccnc1)c1sc(N2CCN(Cc3ccc(F)cc3)C2=O)nc1C(F)(F)F
161 to 162 °C

State the recorded melting point for this entry: CC1(C)SC(c2cccnc2)NC1C(=O)O (stereo not given)
164 to 165 °C

What value of melting point has been reported for the following molecule? O=C(Nc1cccc(Br)n1)Nc1cccc2c1C1CCCCN1C2=O (stereo not given)
218 to 220 °C

Fill in the blank: the reported melting point of COc1c(N2CC3CC3(CN)C2)c(F)cc2c(=O)c(C(=O)O)cn(C3CC3)c12 (stereo not given) is ____.
194 to 196 °C

What value of measured melting point is listed for O=C1O[C@H](O)[C@@H]2[C@H]1[C@@H]1C=C[C@H]2C1 ?
133 °C

Request the reported melting point associated with Nc1c(C=O)c(=O)n(-c2ccccc2)c(=O)n1-c1ccccc1
141 to 142 °C

Requested field: melting point. Item: O=C1O[C@@H](Cn2ccnn2)CN1c1ccc(-c2ccc(C3=NOC(C4(O)CCCC4)C3)nc2)c(F)c1 (stereo not given in full)
225 °C

Give the measured melting point of COc1ccc(-c2nc3ccccc3o2)cc1 .
99.5 to 102 °C

Which melting point value belongs to C[C@H](Nc1c(-c2c(F)cc(F)cc2F)c(Br)nc2ncnn12)C(F)(F)F ?
95 to 97 °C

Data request, read-out melting point, for C=CCOCc1c(CO)sc2c(=O)c(C(=O)NCc3ccc(Cl)cc3)cn(C)c12
184 to 185 °C

----------
Property: melting point; scope: individual molecules

>>> print(df.to_string())
                                  molecule  measured_parameter  reported_result
0  CC(C)Oc1nn(CCO)cc1C(=O)NCc1ccc(Cl)cc1Cl       melting point    122 to 123 °C
1   Fc1ccc2c(c1)C(c1ccccc1F)=NCCN2C1=NCCO1       melting point    180 to 181 °C

// lookup melting point for N#Cc1ccc([C@@H]2CN(S(=O)(=O)c3cccc(C(=O)O)c3)C[C@@]23NC(=O)N(c2cc(Cl)cc(Cl)c2)C3=O)cc1 (relative stereo)
150 °C

----------
Listed here: items and their measured melting point.

>>> df
                                   compound  reported_result
0  CCOC(=O)C(C)Cc1ccnc(-c2nc(=O)c3ccccc3s2)c1 (stereo unspecified)    120 to 121 °C
1  COc1ccc(NC(=N)c2ccccc2)cc1NC(=O)/C=C/c1ccccc1C(F)(F)F    208 to 210 °C

Moving on to the next compound.
Can you look up the measured melting point of O=C(NC(=O)c1ccccc1Cl)Nc1ccc(Cl)c(C(F)(F)F)c1 for me?
164 °C

----------
Reported melting point values follow for various compounds

Solved cases (3 shown):
>>> df
                                   compound  reported_result
0  Cc1ccccc1C(=O)c1ccc(Nc2ccccc2NC(=O)CO)cc1F    149 to 150 °C
1  O=C(c1cc2ccccc2s1)N1CCc2[nH]c3c(cnc4cc(Cl)ccc43)c2C1         > 250 °C
2           Cc1cc(CON2C(=O)c3ccccc3C2=O)on1    129 to 131 °C

Quick one: melting point of O=C(NCCCCCCCNC(=O)c1ccc(OC2CCCC2)cc1)c1ccc(OC2CCCC2)cc1 ?
153 to 154 °C

Which measured melting point value corresponds to Cc1cc(C(=N)NO)cc(C)c1OCCCc1ccco1 ?
100 to 101 °C

Record request: melting point value, item O=C1NC(=O)C(c2c[nH]c3cc(F)ccc23)=C1C1=COc2ccccc2O1
203 °C
